# assay: Dog PK study: zoledronic acid in serum after IV or oral capsule dosing, enteric or non-enteric coated, with or without excess coformer (LC/MS/MS)
# Format: in vivo, Beagle dogs
# condition-set: beagle, iv, 0.183 mg/kg, Leg 13, 0.183 mg/kg IV, saline solution, 2 h, read-out: Average serum concentration of 5 dogs
# Excerpt: This can be attributed to the fact that both animals have historically been used in the safety evaluation and PK screening studies and are recommended by appropriate regulatory agencies. […] Additional tests included ID administration in rats and administration of enteric coated capsules in dogs. USA. Some animals have surgical catheters (jugular vein and intraduodenum) were implanted to the animals prior to the studies. […]
readout-type: concentration at 2 h (ng/mL)
// return numeric value only (unit: ng/mL, not printed)

May I ask what concentration at 2 h has been recorded for `O=P(O)(O)C(O)(Cn1ccnc1)P(=O)(O)O` ?
80.9

Data provenance is patent US9169279B2.
